- Test system: PC3 cells
- assay notes: NAMPT Cell Proliferation Assay (Cell Titer Glo; also performed in the presence of 0.3 mM nicotinamide mononucleotide)
- Format: cell-based
- condition context: Homo sapiens, PC-3, 120 h, 5 days incubation, cell viability by Cell Titer Glo

>  <compound>
O=C(NCC1CC1)c1ccc(NC(=O)C2CN(c3cccnn3)C2)cc1 [Example 995]

>  <measurement units>
nM

>  <IC50>
245

$$$$
>  <compound>
Cc1ccc(N2CC(C(=O)Nc3ccc(O[C@@H]4CCN(C(=O)c5cscn5)C4)cc3)C2)nn1 [Example 918]

>  <measurement units>
nM

>  <IC50>
717

$$$$
>  <compound>
C=CCNC(=O)c1ccc(NC(=O)C2CN(c3cccnn3)C2)cc1 [Example 1012]

>  <measurement units>
nM

>  <IC50>
782

$$$$
>  <compound>
CSCCC(=O)N1CCC(Cc2ccc(NC(=O)C3CN(c4cccnn4)C3)cc2)CC1 [Example 936]

>  <measurement units>
nM

>  <IC50>
2.18

$$$$

----------
- target of assay: NAMPT (human, recombinant, C-terminally His-tagged) (Homo sapiens)
- Sequence (P43490 whole entry): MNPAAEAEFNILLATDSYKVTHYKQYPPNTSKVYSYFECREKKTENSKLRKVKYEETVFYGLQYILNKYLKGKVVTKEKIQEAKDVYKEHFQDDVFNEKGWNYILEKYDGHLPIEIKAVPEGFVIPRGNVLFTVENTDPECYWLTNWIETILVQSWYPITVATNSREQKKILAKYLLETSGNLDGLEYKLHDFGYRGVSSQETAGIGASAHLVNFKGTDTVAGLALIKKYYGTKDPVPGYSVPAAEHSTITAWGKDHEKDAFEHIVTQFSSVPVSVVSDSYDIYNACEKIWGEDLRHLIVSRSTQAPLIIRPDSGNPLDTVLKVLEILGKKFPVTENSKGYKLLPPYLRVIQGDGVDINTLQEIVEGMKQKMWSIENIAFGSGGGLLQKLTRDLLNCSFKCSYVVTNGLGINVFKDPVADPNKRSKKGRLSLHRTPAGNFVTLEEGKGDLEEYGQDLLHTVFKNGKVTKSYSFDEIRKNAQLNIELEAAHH
- assay notes: Time-Resolved Fluorescence Resonance Energy Transfer (TR-FRET) Binding Assay of NAMPT
- condition context: 6.8 nM NAMPT, 200 nM probe, equilibrated 3 hours, absence of substrates
pIC50: −log10 of the molar value.
Where pIC50 equals or exceeds 7, the correct label is rule met; where it does not, the label is rule not met.

>  <chemical structure>
O=C(Nc1ccc(C2CCN(C(=O)c3ccc(Cl)cc3Cl)CC2)cc1)C1CN(c2cccnn2)C1

>  <class label>
rule met

$$$$
>  <chemical structure>
CCOCCC(=O)N1CCC(c2ccc(NC(=O)C3CN(c4cccnc4C)C3)cc2)CC1

>  <class label>
rule not met

$$$$
>  <chemical structure>
Cc1ccc(C(=O)N2CCC(Oc3ccc(NC(=O)C4CN(c5ccnnc5)C4)cc3)CC2)s1

>  <class label>
rule met

$$$$
>  <chemical structure>
CCCCCCC(=O)N1CCC(c2ccc(NC(=O)C3CN(c4cccnn4)C3)cc2)CC1

>  <class label>
rule met

$$$$
>  <chemical structure>
CC(=O)N1CCC(Oc2ccc(NC(=O)C3CN(c4cccnn4)C3)cc2)CC1

>  <class label>
rule not met

$$$$
>  <chemical structure>
CCCCC(=O)N1CCC(c2ccc(NC(=O)C3CN(c4cccnc4)C3)cc2)CC1

>  <class label>
rule met

$$$$
>  <chemical structure>
O=C(Nc1ccc(OC2CCN(C(=O)c3cscn3)CC2)cc1)C1CN(c2cccnn2)C1

>  <class label>
rule not met

$$$$
>  <chemical structure>
O=C(Nc1ccc(OC2CN(C(=O)c3ccc(C(F)(F)F)cc3)C2)cc1)C1CN(c2ccnnc2)C1

>  <class label>
rule met

$$$$
>  <chemical structure>
O=C(Nc1ccc(C2CCN(C(=O)c3cccc(F)c3)CC2)cc1)C1CN(c2cccnn2)C1

>  <class label>
rule met

$$$$
>  <chemical structure>
CC(C)(O)C(=O)N1CCC(c2ccc(NC(=O)[C@H]3CCN(c4ccnnc4)C3)cc2)CC1

>  <class label>
rule not met

$$$$
>  <chemical structure>
O=C(Nc1ccc(C2CCN(C(=O)Cc3cccc(F)c3)CC2)cc1)C1CN(c2cccnn2)C1

>  <class label>
rule met

$$$$
>  <chemical structure>
CCCN1CCC(Oc2ccc(NC(=O)C3CN(c4cccnc4)C3)cc2)CC1

>  <class label>
rule not met

$$$$
>  <chemical structure>
Cc1ccsc1C(=O)N1CCC(c2ccc(NC(=O)C3CN(c4cccnc4)C3)cc2)CC1

>  <class label>
rule met

$$$$
>  <chemical structure>
CCCC(=O)N1CCC(c2ccc(NC(=O)C3CN(c4cccnn4)C3)cc2)CC1

>  <class label>
rule met

$$$$
>  <chemical structure>
O=C(Nc1ccc(C2CCN(C(=O)c3ccoc3)CC2)cc1)C1CN(c2cccnn2)C1

>  <class label>
rule met

$$$$
>  <chemical structure>
O=C(Nc1ccc(C2CCN(C(=O)c3ccc(F)cc3)CC2)cc1)C1CN(c2cccnn2)C1

>  <class label>
rule met

$$$$
>  <chemical structure>
CC(C)CCC(=O)N1CCC(c2ccc(NC(=O)C3CN(c4cccnn4)C3)cc2)CC1

>  <class label>
rule met

$$$$
>  <chemical structure>
CCC(C)(C)CN1CCC(c2ccc(NC(=O)C3CN(c4cccnc4)C3)cc2)CC1

>  <class label>
rule not met

$$$$
>  <chemical structure>
O=C(Nc1ccc(OC2CCN(CC3CC3)CC2)cc1)C1CN(c2cccnc2)C1

>  <class label>
rule not met

$$$$
>  <chemical structure>
O=C(Nc1ccc(C2CCN(C(=O)c3cc(Cl)cc(Cl)c3)CC2)cc1)C1CN(c2cccnn2)C1

>  <class label>
rule met

$$$$
>  <chemical structure>
Cc1ncccc1N1CC(C(=O)Nc2ccc(C3CCN(C(=O)CC(C)(C)C)CC3)cc2)C1

>  <class label>
rule met

$$$$
>  <chemical structure>
O=C(Nc1ccc(OC2CCN(C(=O)[C@H]3CCCO3)CC2)cc1)[C@H]1CCN(c2cccnc2)C1

>  <class label>
rule not met

$$$$
>  <chemical structure>
CC(=O)N[C@@H](CC(C)C)C(=O)N1CCC(c2ccc(NC(=O)C3CN(c4cccnc4)C3)cc2)CC1

>  <class label>
rule met

$$$$

----------
The reader will find reported IC50 values listed item by item below.
- target of assay: NAMPT (human, recombinant, C-terminally His-tagged) (Homo sapiens)
- assay notes: Time-Resolved Fluorescence Resonance Energy Transfer (TR-FRET) Binding Assay of NAMPT
- condition context: 6.8 nM NAMPT, 200 nM probe, equilibrated 3 hours, absence of substrates
- Description: Determination of the utility of compounds having Formula (I) as binders to and inhibitors of NAMPT was performed using Time-Resolved Fluorescence Resonance Energy Transfer (TR-FRET) binding assays. Time-Resolved Fluorescence Resonance Energy Transfer (TR-FRET) Binding Assay of NAMPT […]
assay metric: IC50 (nM)

>  <molecule>
O=C(Nc1ccc(C2CCN(C(=O)C3CCCCC3)CC2)cc1)C1CN(c2cccnc2)C1 [Example 136]

>  <target of assay>
NAMPT (human, recombinant, C-terminally His-tagged) (Homo sapiens)

>  <measurement units>
nM

>  <observed value>
20.4

$$$$
>  <molecule>
CC(C)CC(=O)N1CCC(c2ccc(NC(=O)C3CN(c4cccnc4)C3)cc2)CC1 [Example 137]

>  <target of assay>
NAMPT (human, recombinant, C-terminally His-tagged) (Homo sapiens)

>  <measurement units>
nM

>  <observed value>
17.6

$$$$
>  <molecule>
O=C(Nc1ccc(OC2CCN(C(=O)CC3CC3)CC2)cc1)C1CN(c2ccnnc2)C1 [Example 293]

>  <target of assay>
NAMPT (human, recombinant, C-terminally His-tagged) (Homo sapiens)

>  <measurement units>
nM

>  <observed value>
78.2

$$$$
>  <molecule>
Cc1ccsc1C(=O)N1CCC(Oc2ccc(NC(=O)C3CN(c4cccnc4)C3)cc2)CC1 [Example 59]

>  <target of assay>
NAMPT (human, recombinant, C-terminally His-tagged) (Homo sapiens)

>  <measurement units>
nM

>  <observed value>
27.9

$$$$

----------
The reader will find reported IC50 values listed item by item below.
- target of assay: NAMPT (human, recombinant, C-terminally His-tagged) (Homo sapiens)
- assay notes: Time-Resolved Fluorescence Resonance Energy Transfer (TR-FRET) Binding Assay of NAMPT
- condition context: 6.8 nM NAMPT, 200 nM probe, equilibrated 3 hours, absence of substrates
assay metric: IC50

>  <compound>
O=C(Nc1ccc(C2CCN(C(=O)CC3C[C@@H]4CC[C@H]3C4)CC2)cc1)C1CN(c2cccnc2)C1 (stereo partly shown)

>  <assay metric>
IC50

>  <observed value>
30.6 nM

$$$$
>  <compound>
CCCN1CCC(c2ccc(NC(=O)C3CN(c4cccnc4)C3)cc2)CC1

>  <assay metric>
IC50

>  <observed value>
1360 nM

$$$$
>  <compound>
Cc1ncccc1N1CC(C(=O)Nc2ccc(OC3CCN(C(=O)CC4CCOCC4)CC3)cc2)C1

>  <assay metric>
IC50

>  <observed value>
424 nM

$$$$
>  <compound>
C#CCCC(=O)N1CCC(c2ccc(NC(=O)C3CN(c4cccnn4)C3)cc2)CC1

>  <assay metric>
IC50

>  <observed value>
27.6 nM

$$$$

----------
- target of assay: NAMPT (human, recombinant, C-terminally His-tagged) (Homo sapiens)
- assay notes: Time-Resolved Fluorescence Resonance Energy Transfer (TR-FRET) Binding Assay of NAMPT
- condition context: 6.8 nM NAMPT, 200 nM probe, equilibrated 3 hours, absence of substrates
pIC50: −log10 of the molar value.

>  <chemical structure>
CC(C)(C)CC(=O)N1CCC(Oc2ccc(NC(=O)C3CN(c4ccnnc4)C3)cc2)CC1

>  <pIC50>
7.12

$$$$
>  <chemical structure>
CN1CCN(CC(=O)N2CCC(c3ccc(NC(=O)C4CN(c5cccnc5)C4)cc3)CC2)CC1

>  <pIC50>
7.22

$$$$
>  <chemical structure>
CCC(CC)C(=O)N1CCC(c2ccc(NC(=O)C3CN(c4cccnn4)C3)cc2)CC1

>  <pIC50>
7.91

$$$$
>  <chemical structure>
Cc1ccncc1N1CC(C(=O)Nc2ccc(C3CCN(C(=O)C(C)(C)O)CC3)cc2)C1

>  <pIC50>
8.18

$$$$
